- Target Entity: MAGL (Mus musculus, UniProt O35678)
- Sequence (O35678 whole entry): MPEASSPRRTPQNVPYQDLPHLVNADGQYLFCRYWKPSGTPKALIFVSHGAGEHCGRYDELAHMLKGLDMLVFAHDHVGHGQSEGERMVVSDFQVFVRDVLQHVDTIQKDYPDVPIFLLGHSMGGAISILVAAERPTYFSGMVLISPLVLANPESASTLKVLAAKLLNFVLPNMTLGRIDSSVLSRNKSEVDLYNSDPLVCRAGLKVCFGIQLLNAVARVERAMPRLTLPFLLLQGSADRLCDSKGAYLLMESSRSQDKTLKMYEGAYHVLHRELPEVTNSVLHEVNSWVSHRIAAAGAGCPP
- Test Method Notes: Mouse brain MAGL inhibition in proteomes from inhibitor treated mice (oral gavage)
- Format: in vivo
- Design: from tissue; host or cells: mouse brain membrane fraction
- Condition Parameters: 20 mg/kg, p.o., C57Bl/6J mice, brain proteome 4 h following administration
Outcome Measure: inhibition at 20 mg/kg

Study these solved cases before continuing.
O=C(ON1C(=O)CCC1=O)N1CCC(C(O)(c2ccc3c(c2)OCO3)c2ccc3c(c2)OCO3)CC1 [Example 1] | 75%
O=C(ON1C(=O)CNC1=O)N1CCN(C(c2ccc(Cl)cc2)c2ccc(Cl)cc2)CC1 [Example 46] | > 95%

Any idea what its inhibition at 20 mg/kg is? The compound is O=C(ON1C(=O)CCC1=O)N1CCN(C(c2ccc(Br)cc2)c2ccc(Br)cc2)CC1 [Example 3] > 95%

Then this compound: CC1CC(=O)N(OC(=O)N2CCN(C(c3ccc(Cl)cc3)c3ccc(Cl)cc3)CC2)C1=O (stereo not shown) [Example 41] > 95%

Attribution: patent US9567302B2
